Data origin: patent US10538497B2

Listed next: entries and their corresponding pIC50.
- subject of test: IDO1 (Homo sapiens (Human))
- Sequence (P14902 whole entry): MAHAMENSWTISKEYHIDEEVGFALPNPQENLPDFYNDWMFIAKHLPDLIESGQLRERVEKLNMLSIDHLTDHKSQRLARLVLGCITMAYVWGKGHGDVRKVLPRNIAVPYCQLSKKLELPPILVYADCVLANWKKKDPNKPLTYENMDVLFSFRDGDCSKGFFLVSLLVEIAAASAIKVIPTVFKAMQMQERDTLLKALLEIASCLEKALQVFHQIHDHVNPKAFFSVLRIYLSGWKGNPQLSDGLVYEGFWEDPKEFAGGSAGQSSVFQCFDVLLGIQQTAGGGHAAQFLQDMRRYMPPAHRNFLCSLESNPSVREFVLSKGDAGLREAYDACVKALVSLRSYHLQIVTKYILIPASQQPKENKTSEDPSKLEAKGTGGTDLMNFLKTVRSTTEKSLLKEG
- experiment summary: IDO1 Enzyme Assay
- cond: read-out: IDO1 Enzyme Assay, IC50; HIS-tagged recombinant IDO1, 40 nM
Hey, just a heads up that pIC50 is the negative log base 10 of the concentration in molar.

1) CNC(=O)CCSc1nonc1/C(=N/O)Nc1ccc(F)c(Br)c1 [Example 70] ... 7.55
2) N#Cc1cc(N/C(=N\O)c2nonc2SC[C@H]2CCC(=O)N2)ccc1F [Example 148] ... 6.76
3) CC(=O)CSc1nonc1/C(=N/O)Nc1ccc(F)c(Br)c1 [Example 115] ... 7.29
4) C[C@@H](CO)NC(=O)CSc1nonc1/C(=N/O)Nc1ccc(F)c(Br)c1 [Example 205] ... 7.91

# ---- query compound ----
Record N#Cc1cc(N/C(=N\O)c2nonc2SCCNS(=O)(=O)C2CC2)ccc1F [Example 178] . Reported pIC50: 7.22
